PROTOCOL SUMMARY: HILIC, Waters ACQUITY UPLC BEH Amide, 100 × 2.1 mm, 1.7 µm; A: water + 0.125% formic acid + 10 mM ammonium formate; B: 5% water + 95% acetonitrile + 0.125% formic acid + 10 mM ammonium formate; gradient (min/%B) 0/100 2/100 7.7/70 9.5/40 10.25/30 12.75/100 17/100
CONDITION DETAILS: stereoisomer not certain
QUANTITY MEASURED: LC retention time (min)

Below, 5 compounds whose answers are already recorded.
O=C(O)CNC(=O)C=Cc1ccccc1 [N-Cinnamoylglycine] = 2.95
Nc1nc(Cl)nc2c1ncn2C1CC(O)C(CO)O1 (configuration not stated) [Cladribine] = 1.95
Cc1cn(C2OC(CO)C(O)C2O)c(=S)[nH]c1=O (configuration not stated) [5-Methyl-2-thiouridine] = 1.98
CCCc1nc2c(C)cc(-c3nc4ccccc4n3C)cc2n1Cc1ccc(-c2ccccc2C(=O)O)cc1 [Telmisartan] = 1.25
Cn1cnc(C[C@H](N)C(=O)O)c1 [1-Methyl-L-histidine] = 9.1

I: Nc1nc2c(c(=O)[nH]1)N(C=O)C(CNc1ccc(C(=O)NC(CCC(=O)O)C(=O)O)cc1)CN2 (configuration not stated) [Folinic acid]
II: Cc1nc2ccccn2c(=O)c1CCN1CCC(C(=O)c2ccc(F)cc2)CC1 [Pirenperone]
III: O=Cc1c[nH]c2ccccc12 [Indole-3-carboxaldehyde]
Ask: hey, can you rank those compounds up there by LC retention time? biggest number first please Form field (ranking): labels in requested order.
Reply: I, II, III
(I: 7.92 min, II: 3.5 min, III: 1.16 min)

I: COc1cc(-c2oc3cc(O)cc(O)c3c(=O)c2OC2OC(COC3OC(C)C(O)C(O)C3O)C(O)C(O)C2O)ccc1O (configuration not stated) [Isorhamnetin-3-O-rutinoside]
II: CSc1ncnc2nc[nH]c12 [6-Methylmercaptopurine]
Ask: Please tell me which of the two, I or II , has the higher reported LC retention time value. // return label of chosen record
Reply: I
(I: 6.02 min, II: 1.49 min)
